// provenance: patent US7807678B2

# maps each entry to its Ki
- SYSTEM: MC1-R (B-16 mouse melanoma cells) (Mus musculus, UniProt Q01727)
- Construct: B-16 mouse melanoma cells (containing MC1-R); endogenous in cells; host or cells: B-16 mouse melanoma cells
- Sequence (Q01727 whole entry): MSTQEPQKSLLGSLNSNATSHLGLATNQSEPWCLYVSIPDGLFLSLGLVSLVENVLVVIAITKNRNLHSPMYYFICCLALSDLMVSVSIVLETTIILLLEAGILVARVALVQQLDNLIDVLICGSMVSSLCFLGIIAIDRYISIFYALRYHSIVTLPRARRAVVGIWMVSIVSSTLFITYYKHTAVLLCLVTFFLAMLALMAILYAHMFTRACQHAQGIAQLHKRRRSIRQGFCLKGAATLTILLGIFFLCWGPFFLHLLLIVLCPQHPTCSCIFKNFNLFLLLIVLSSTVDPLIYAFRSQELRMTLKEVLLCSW
- ASSAY_METHOD_TEXT: Ki determination by the method of Example 4, MC1-R
- Assay type: binding
- PARTICULARS: read-out: Ki (nM) MC1-R
VALUE_TYPE: Ki

[[record]]
compound = "N=C(N)NCCCC1C(=O)N2C(COc3ccc4ccccc4c3)CCC2N1C(=O)C(Cc1ccccc1)NC(=O)C(N)Cc1cnc[nH]1 (stereo not drawn) [Example 97]"
system = "MC1-R (B-16 mouse melanoma cells) (Mus musculus, UniProt Q01727)"
reported_measurement = "1 nM"

[[record]]
compound = "N=C(N)NCCC[C@H]1C(=O)N2C(CC[C@@H]2COc2ccc3ccccc3c2)N1C(=O)[C@@H](Cc1ccccc1Cl)NC(=O)[C@@H]1C[C@@H](OCc2ccccc2)CN1 (stereo partly drawn) [Example 100]"
system = "MC1-R (B-16 mouse melanoma cells) (Mus musculus, UniProt Q01727)"
reported_measurement = "244 nM"

[[record]]
compound = "N=C(N)NCCCC1C(=O)N(CCc2c[nH]c3ccccc23)CCN1C(=O)C(Cc1ccc(Cl)cc1)NC(=O)C1Cc2ccccc2CN1 (stereo not drawn) [Example 14]"
system = "MC1-R (B-16 mouse melanoma cells) (Mus musculus, UniProt Q01727)"
reported_measurement = "3 nM"

[[record]]
compound = "[2H]N[C@@H](Cc1cnc[nH]1)C(=O)N[C@@H](Cc1ccccc1)C(=O)N1C2CC[C@H](COc3ccc4ccccc4c3)N2C(=O)[C@@H]1CCCCN (stereo partly drawn) [Example 180]"
system = "MC1-R (B-16 mouse melanoma cells) (Mus musculus, UniProt Q01727)"
reported_measurement = "8 nM"

[[record]]
compound = "N=C(N)NCCCC1C(=O)N(CCc2c[nH]c3ccccc23)CCN1C(=O)C(Cc1ccc(Cl)cc1)NC(=O)C(COCc1ccccc1)NC(=O)CCCCCCN (stereo not drawn) [Example 17]"
system = "MC1-R (B-16 mouse melanoma cells) (Mus musculus, UniProt Q01727)"
reported_measurement = "4 nM"

[[record]]
compound = "N=C(N)NCCC[C@H]1C(=O)N2C(CC[C@@H]2COc2ccc3ccccc3c2)N1C(=O)[C@@H](Cc1ccc(Cl)cc1Cl)NC(=O)[C@@H]1Cc2ccccc2CN1 (stereo partly drawn) [Example 112]"
system = "MC1-R (B-16 mouse melanoma cells) (Mus musculus, UniProt Q01727)"
reported_measurement = "111 nM"

